ASSAYED_SYSTEM: hOCT2 (SLC22A2) (Homo sapiens, UniProt O15244, S270A)
Construct: membrane fragments immobilised on the sensor chip
Sequence (O15244 whole entry S270A, the tested form may be a part): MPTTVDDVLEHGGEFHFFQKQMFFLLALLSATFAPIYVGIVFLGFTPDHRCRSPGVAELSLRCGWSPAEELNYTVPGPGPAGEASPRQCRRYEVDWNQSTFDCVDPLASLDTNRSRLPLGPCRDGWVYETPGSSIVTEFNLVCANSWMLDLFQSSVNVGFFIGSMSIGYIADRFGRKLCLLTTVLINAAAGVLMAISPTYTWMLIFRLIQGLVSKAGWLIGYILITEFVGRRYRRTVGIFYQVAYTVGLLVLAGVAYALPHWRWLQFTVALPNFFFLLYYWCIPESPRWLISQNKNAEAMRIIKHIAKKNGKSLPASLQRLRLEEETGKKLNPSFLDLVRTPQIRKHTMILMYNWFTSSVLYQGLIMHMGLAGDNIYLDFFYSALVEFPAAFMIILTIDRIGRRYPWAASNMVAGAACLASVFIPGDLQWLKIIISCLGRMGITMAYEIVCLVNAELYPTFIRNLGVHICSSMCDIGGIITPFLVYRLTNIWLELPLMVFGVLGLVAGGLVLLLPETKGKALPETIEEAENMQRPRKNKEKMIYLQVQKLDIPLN
TEST_METHOD_NOTES: cell free electrophysiological sensor chip assay, inhibition of choline-induced current, hOCT2 CHO cell membranes
TEST_CONDITIONS: 30 mM choline as substrate (FIG. 4B legend), pH 7.4, read-out: IC50 of TBA of hOCT2
EXPERIMENTAL_READOUT: IC50 (nM)

[[record]]
smiles = "CCCC[N+](CCCC)(CCCC)CCCC"
value_unit = "nM"
data_value = 2900


---

ASSAYED_SYSTEM: rOCT2 (slc22a2) (Rattus norvegicus, UniProt Q9R0W2)
Construct: membrane fragments immobilised on the sensor chip
Sequence (Q9R0W2 with tags, fused parts or gaps limits assumed): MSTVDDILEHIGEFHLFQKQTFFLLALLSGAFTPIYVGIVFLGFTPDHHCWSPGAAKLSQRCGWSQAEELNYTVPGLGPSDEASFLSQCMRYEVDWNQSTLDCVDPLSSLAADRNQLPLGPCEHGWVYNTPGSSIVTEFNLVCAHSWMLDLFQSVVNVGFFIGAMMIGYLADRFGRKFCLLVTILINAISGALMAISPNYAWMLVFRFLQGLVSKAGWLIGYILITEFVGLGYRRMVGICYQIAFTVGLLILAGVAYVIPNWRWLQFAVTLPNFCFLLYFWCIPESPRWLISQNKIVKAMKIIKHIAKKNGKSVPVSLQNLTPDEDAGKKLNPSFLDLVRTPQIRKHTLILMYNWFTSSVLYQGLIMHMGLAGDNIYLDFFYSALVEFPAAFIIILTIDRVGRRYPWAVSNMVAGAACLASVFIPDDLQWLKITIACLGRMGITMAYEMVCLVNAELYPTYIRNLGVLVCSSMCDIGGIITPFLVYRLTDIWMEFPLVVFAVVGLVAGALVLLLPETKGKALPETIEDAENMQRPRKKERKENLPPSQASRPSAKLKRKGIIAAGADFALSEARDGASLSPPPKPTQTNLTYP
TEST_METHOD_NOTES: cell free electrophysiological sensor chip assay, inhibition of choline-induced current, rOCT2 CHO cell membranes
TEST_CONDITIONS: 10 mM choline as substrate, pH 7.4, read-out: IC50 of TBA of rOCT2
pIC50: −log10 of the molar value.
EXPERIMENTAL_READOUT: pIC50

[[record]]
compound = "CCCC[N+](CCCC)(CCCC)CCCC [TBA]"
data_value = 5.46

